- methodSummary: soluble fraction after stress (log2 fold change); higher = more stays soluble; pooled small domains, quantitative proteomics
- conditionsUsed: stress: pH 4
Tick True if soluble fraction (log2) is -0.3 or greater. Tick False if soluble fraction (log2) is less than -0.3.

Threshold query (soluble fraction (log2) >= -0.3) on HMPDYAFEGVVIKLTHRDYDRWKAGFPDVDLPPYLTARDAWLSEQTPADRKNWFVSTATDLRNFQKREAI
False

Threshold query (soluble fraction (log2) >= -0.3) on HMNKQEFLNTLRIIFKKANVLDVESIIDVYEEHFAVGYEKGLNDEQIIKSLGTPKEIYTSYVEAGI
False

Threshold query (soluble fraction (log2) >= -0.3) on HMQQKNWIVRDGDGKIYGPFTTEQVLVQIDRGYFVGGEEVALYPGGRWIAISGAPEFYDRLLDALAMEG
False

Threshold query (soluble fraction (log2) >= -0.3) on HMEFNDLNDDEKAILHIMYNTGEKMTTALAARITNRGRNFASKLLKSLVKKEILEWHGTSKQDRNQYYTLA
False

Threshold query (soluble fraction (log2) >= -0.3) on HMARAVSPLEAIPGVGPRRRQQLLKQLGGMQEVARAGVEDLSRVPGISRALAQQIYDAFHGD
True

Threshold query (soluble fraction (log2) >= -0.3) on HMKQQNFADLAGRFVFNADNEVVFNFGKHKNVPVATVLKNEPGYYGWMMGGDFPLFTKKILKQIKEA
False

Threshold query (soluble fraction (log2) >= -0.3) on HMSGALDTVVGIRMLKLLSTPIEKSKAFQVGIINKDGKKLRDPTSGERQHYTFLNRFVFKVQYALMRS
True

Threshold query (soluble fraction (log2) >= -0.3) on HMKNLKLVSNTDGIRIDSWLADEFEDYSRSYLRKLIDQDLVYVNGNKIKANYKLKKGDEISISIPEPE
True

Threshold query (soluble fraction (log2) >= -0.3) on HMGGEKLPAPVAGTLLRYSVAEGARVSEGQTVIILESMKMELEINTPKAGVIHFLAAVGAQVAEGDTLAEI
True

Threshold query (soluble fraction (log2) >= -0.3) on HMEFLDQAFLHETMRKVNQDATINLLKKVYEVPQKFIGRKVTVQYDPEDLSRVYVKDLSFPEPVTVYPV
True

Threshold query (soluble fraction (log2) >= -0.3) on HMEMNPLDIQNKAAELAQQWLQLPVGERQKQMAAVRTSNPNLHAMAKQKMEEMRSQAESQGRQSLSQP
True

Threshold query (soluble fraction (log2) >= -0.3) on HMTTVRLNATVPPELALQRLDRVARELFPEYSRNRLQQWIRSGELLVNGSPSGVRDKVPLGAELAVAANLE
False

Threshold query (soluble fraction (log2) >= -0.3) on HMSDPVDDLLLRISQQAGVARGQLVAELNMLVQDRFGGNLRHEAAAVLMAKRYGIEFRDLLPALREHLVKN
False

Threshold query (soluble fraction (log2) >= -0.3) on HMTTTAGTAVVQTGNSGKLNLREQAYSNAGILGRYSNGTIVTVLQKGSAWSYVEVQGQKGYMMSKFLRFT
False

Threshold query (soluble fraction (log2) >= -0.3) on HMGSEEMLGALGVVERATDDGDWWIAVHGEHWRARSAQALVPGDRVRVARIDGLTLTVTPIA
True

Threshold query (soluble fraction (log2) >= -0.3) on HMKSNIIPLSLKKPQRLDIFLTNYFVDLSRTQIKKMITDGNIKVNDLIAKPSLKLIGDEIIFYTLPK
False
